subject of test: Tyrosine-protein phosphatase non-receptor type 11 (Homo sapiens) (UniProt Q06124)
measurement protocol: Inhibition of recombinant human SHP2 expressed in Escherichia coli using 2P-IRS1 peptide as substrate at 1 uM after 1 hr by microplate reader analysis relative to control
property label: inhibition (%)

Consider the worked cases shown below.
{"structure notation": "O=c1c(O)cccc2ccc(O)c(O)c12", "property label": "inhibition", "numeric readout": 0}
{"structure notation": "COC(=O)c1cc(O)c(=O)c2c(O)c(O)c(OC)cc2c1", "property label": "inhibition", "numeric readout": 6}
{"structure notation": "O=c1c(O)cc(-c2nc(CCl)co2)cc2ccc(O)c(O)c12", "property label": "inhibition", "numeric readout": 29}
{"structure notation": "COc1cc2cc(C(N)=O)cc(O)c(=O)c2c(O)c1O", "property label": "inhibition", "numeric readout": 0}

P: CCOC(=O)c1cc(O)c(=O)c2c(O)c(O)ccc2c1
Q: NC(=O)c1cc(O)c(=O)c2c(O)c(O)ccc2c1
*Q* Return label of the item with the larger inhibition. Candidates: P , Q . Could you answer with the label of the item you picked?
*A* P
